# test-target: Human PHFs
# assay-summary: Scatchard saturation test with ^3H-AST, PHFs
# Description: Interactions of quinolines with tau and in vitro displacement tests with H^3-AST. […] For the Scatchard test a fixed tau protein concentration (230 nM) and variable concentrations of ^3H-AST between 10 and 120 nM was used, leading to a final volume of 20 μL with 8% ethanol (EtOH 8%). […] It is then left in the dark and finally the counts per minute (cpm) are measured in a scintillating counting equipment.
measured-endpoint: pKd
Schema: pKd number; meaning minus log10 of the concentration expressed in molar units.

Input COc1ccc(CCN2CCC(Nc3nc4ccccc4n3Cc3ccc(F)cc3)CC2)cc1 [^3H-AST, [O-methyl-3H]-astemizol] . Output pKd: 8.40
